// reported growth inhibition for each item listed
experiment: NCI Yeast Anticancer Drug Screen. Data for the bub3 strain (AID 167); conditions: S. cerevisiae bub3 mutant strain, at 50.0 µM, stronger effect = higher value
About 79,000 compounds went through this panel and 15% of them were active in at least one assay; those are over-represented in the sample as a whole.

{"compound": "O=C=Nc1cc(Cl)ccc1Cl", "growth inhibition [%]": 7.95}
{"compound": "CCCCCCCCCCCCCCCCCCCCCCC", "growth inhibition [%]": -17.2}
{"compound": "CCN(CC)CCOC(=O)COc1ccc(Cc2ccccc2)cc1", "growth inhibition [%]": -9.4}
{"compound": "O=C(O)CCC(=O)Nc1ccc(S(=O)(=O)Nc2nccs2)cc1", "growth inhibition [%]": -18.3}
{"compound": "C/C=C\\CCCCCCCCCCCCCCCC", "growth inhibition [%]": -6.9}
{"compound": "CC(=O)OC12C=CC(=O)N1c1ccccc1C(=O)O2 (configuration not stated)", "growth inhibition [%]": 13.8}
{"compound": "O=C(O)CC(NC(=O)/C(=C/c1ccccc1)NC(=O)c1ccccc1)C(=O)O (configuration not stated)", "growth inhibition [%]": 25.1}

* * *

// reported growth inhibition for each item listed
test: NCI Yeast Anticancer Drug Screen. Data for the mlh1 rad18 strain (AID 175); conditions: S. cerevisiae mlh1 rad18 strain growth inhibition; at 50.0 µM; stronger effect = higher value
Compounds without any hit were thinned out: in the full panel of roughly 79,000, 15% have a hit.
measurement.type: growth inhibition (%)

{"compound": "CCOc1ccc(NC(=O)/C(Cc2nc3ccccc3[nH]c2=O)=N\\O)cc1", "meas.value": -4.7}
{"compound": "COC(=O)CCc1ccc(C2CO2)cc1 (stereo unspecified)", "meas.value": 10.3}
{"compound": "O=C(NNC(=O)c1ccc2ccccc2c1)c1cccc(Br)c1", "meas.value": -7.95}
{"compound": "O=S(=O)(CCS(=O)(=O)c1ccccc1)c1ccccc1", "meas.value": -0.1}
{"compound": "Cc1ccc(COC(=O)Nc2ccc(C)c(NC(=O)OCc3ccc(C)cc3)c2)cc1", "meas.value": 30.1}
{"compound": "NC(N)=NCCS(=O)(=O)O", "meas.value": 20.4}
{"compound": "Clc1ccccc1C=NC1CCCCC1", "meas.value": -3.1}
{"compound": "O=C(O)c1cnc2cccc([N+](=O)[O-])c2c1", "meas.value": 11.4}
{"compound": "C=C1C(=O)O[C@@H]2C[C@]3(C)[C@@H](C[C@H]12)[C@](C)(O)CC[C@@H]3O", "meas.value": 0.3}
{"compound": "O=C(CC1=NC2NN(c3ccccc3)C(=O)C2=C1CC(=O)c1ccc([N+](=O)[O-])cc1)c1ccc([N+](=O)[O-])cc1 (stereo unspecified)", "meas.value": 32}
{"compound": "COc1cccc(Oc2cccc[n+]2CC(C)=O)c1", "meas.value": 1.15}
{"compound": "CC1Oc2ccc3ccccc3c2C(C)N1C (stereo unspecified)", "meas.value": 16.9}
{"compound": "Nc1ccc(S(=O)(=O)CC(=O)N2CCOCC2)cc1", "meas.value": 22.5}
{"compound": "CCCCc1c(C#N)c(=O)n2c(N)c(C#N)cnc2c1SC", "meas.value": 25.8}
{"compound": "CCCC[N+](CCCC)(CCCC)CC(=O)[O-]", "meas.value": -24.6}
{"compound": "Cc1csc2nc(-c3ccncc3)cn12", "meas.value": 23.1}
{"compound": "O/N=C1\\CC2(N3CCOCC3)CCC1(c1ccccc1)CC2", "meas.value": 11.9}
{"compound": "COc1ccccc1NC(=O)CC(=O)n1nc(C)c(N=Nc2ccccc2F)c1C", "meas.value": -30.3}
{"compound": "O=S1(=O)CCC(Br)c2ccccc21 (stereo unspecified)", "meas.value": -12.5}
{"compound": "COc1cc2cccnc2c2[nH]c(=O)c3c(c12)CCC3", "meas.value": 7.25}
{"compound": "c1ccc2c(c1)Cc1ccccc1-2", "meas.value": -19.1}
{"compound": "N=C(N)n1ncc2c1CCCC2=O", "meas.value": 1.75}
{"compound": "CC(=O)N/N=C/c1cccc([N+](=O)[O-])c1", "meas.value": -7.9}
{"compound": "CCCCN=C1NC(N)=NC(C)(C)N1", "meas.value": -18.9}
{"compound": "CCCCN1C(=O)C(NC(C)=O)C1COC(C)(C)C (stereo unspecified)", "meas.value": -35.5}
{"compound": "CCCCCCCCOc1ccc(C=Nc2ccc(C)cc2)cc1", "meas.value": 13}
